# System: young adult male Swiss-Webster strain albino mice
# assay procedure: Acute oral toxicity (ALD50)
# Format: in vivo
# details: 250 mg/kg oral, aqueous solution
observable: Mortality 7 Days

[
  {
    "compound": "CCCCC(CC)CNc1cc[n+](CCCCCCCCCC[n+]2ccc(NCC(CC)CCCC)cc2)cc1 (centres unmarked) [Example 59]",
    "result": "0/3"
  },
  {
    "compound": "CCCCCCCCNc1cc[n+](CCCCCCCCCC[n+]2ccc(NCCCCCCCC)cc2)cc1 [10A,B]",
    "result": "0/3"
  }
]

Could you tell me Mortality 7 Days for each of these compounds? They are listed below.
1. CCCCCCCCNc1cc[n+](CCCCCCCC[n+]2ccc(NCCCCCCCC)cc2)cc1 [Example 12]
2. CCCCCCCNc1cc[n+](CCCCCCCCC[n+]2ccc(NCCCCCCC)cc2)cc1 [Example 25]
3. CCCCCCCNc1cc[n+](CCCCCCCCCC[n+]2ccc(NCCCCCCC)cc2)cc1 [Example 27]
4. CCCCCCNc1cc[n+](CCCCCCCCCCCCCC[n+]2ccc(NCCCCCC)cc2)cc1 [Example 6]

1: 0/3; 2: 1/3; 3: 0/3; 4: 1/3

# per-item lookup of Mortality 7 Days; items listed below
1. CCCCCCCNc1cc[n+](CCCCCCCC[n+]2ccc(NCCCCCCC)cc2)cc1 [Example 23]
2. CCCCCCCNc1cc[n+](CCCCCCCCCCCC[n+]2ccc(NCCCCCCC)cc2)cc1 [Example 3]

["0/3", "1/3"]

---

# assay procedure: Acute oral toxicity (ALD50)
# Assay type: in vivo
# details: mouse, in vivo, po, mice, aqueous solution; read-out: 7-Day ALD50
# Procedure: The acute oral toxicity (ALD50) of several representative examples was determined as follows: Groups of 3 young adult male Swiss-Webster strain albino mice were fasted approximately 4 hours before medication and then medicated once orally by stomach tube.
observable: LD50 at 168 h (mg/kg)
Answers are plain numbers, in mg/kg.

Field: example entries. Status: answers known.
[
  {
    "compound": "CCCCCCCCNc1cc[n+](CCCCCCCC[n+]2ccc(NCCCCCCCC)cc2)cc1 [Example 12]",
    "LD50 at 168 h / mg/kg": 750
  },
  {
    "compound": "CCCCC(CC)CNc1cc[n+](CCCCCCCCCC[n+]2ccc(NCC(CC)CCCC)cc2)cc1 (stereo not shown) [Example 59]",
    "LD50 at 168 h / mg/kg": 750
  },
  {
    "compound": "CCCCCCCNc1cc[n+](CCCCCCCCCC[n+]2ccc(NCCCCCCC)cc2)cc1 [Example 27]",
    "LD50 at 168 h / mg/kg": 250
  }
]

Kindly review the next compound as well.
Specify reported LD50 at 168 h for the compound shown: CCCCCCNc1cc[n+](CCCCCCCCCCCCCC[n+]2ccc(NCCCCCC)cc2)cc1 [Example 6]
315

---

# Test system: S. pyogen. C203
# assay procedure: In vitro antibacterial activity, MIC (modified Autotiter method)
# Format: cell-based, Streptococcus pyogenes
# details: Streptococcus pyogenes, 20 h, 18-20 hours at 37° C.; read-out: MIC S. pyogen. C203
For each record, check the reported MIC: if it is below 1 µg/mL write Fulfilled, else write Not fulfilled.

[
  {
    "molecule": "CCCCCCCCCCNc1cc[n+](CCCCCCCC[n+]2ccc(NCCCCCCCCCC)cc2)cc1",
    "class assignment": "Not fulfilled"
  },
  {
    "molecule": "CCCCCCNc1cc[n+](CCCCCCCCCC[n+]2ccc(NCCCCCC)cc2)cc1",
    "class assignment": "Fulfilled"
  },
  {
    "molecule": "CCCCCCCCCCCCNc1cc[n+](CCCCCCC[n+]2ccc(NCCCCCCCCCCCC)cc2)cc1",
    "class assignment": "Not fulfilled"
  },
  {
    "molecule": "Cc1cc(N)cc[n+]1CCCCCCCCC[n+]1ccc(N)cc1C [IX, reference compound]",
    "class assignment": "Not fulfilled"
  }
]

Please turn your attention to the following entry.
Is it true that MIC reported for CCCCCCCCCCCCNc1cc[n+](CCCCCCCCCCCC[n+]2ccc(NCCCCCCCCCCCC)cc2)cc1 is less than 1 µg/mL?
Not fulfilled
